test system: ACHN renal; assay: NCI tumour cell line growth inhibition, 48 h
Exercise: for every item that follows, state its recorded TGI.

What measured TGI goes with `CC(=O)Nc1ccc2nncnc2c1` ? > 100 µM

What measured TGI goes with `NS(=O)(=O)c1nnc(NC(=O)CCC(=O)O)s1` ? > 100 µM

What measured TGI goes with CC(=O)OCC1C(C(C)OC(C)=O)CCC2C1CCC1(C)C(OC(C)=O)CCC21 (stereo unspecified) ? 28.3 µM

What measured TGI goes with CCC(=O)C1=C(OC(C)=O)C2Cc3c(n(C)c4ccccc34)C(C1)N2C (stereo unspecified) ? > 100 µM

What measured TGI goes with CC(=O)OC1(C#N)CC2OC1C1C2N1C(=O)c1ccccc1 (stereo unspecified) ? > 100 µM

What measured TGI goes with `C1CNCCN2CCCNCCN(C1)CC2` ? > 100 µM

====

system: OVCAR-4 ovarian; assay: NCI tumour cell line growth inhibition, 48 h
measurement-label: TGI

What measured TGI goes with `O=C(c1cc(=O)c2ccc(O)cc2o1)c1ccc(Cl)cc1Cl` ? > 90.1 µM

What measured TGI goes with `Cc1ccnc(NS(=O)(=O)c2ccc(NC(=O)c3ccc4nc5ccccc5c(Nc5ccc(S(=O)(=O)Nc6nccc(C)n6)cc5)c4c3)cc2)n1` ? > 100 µM

What measured TGI goes with CN(Cc1cnc2nc(N)nc(N)c2n1)c1ccc(C(=O)NC(CCS(=O)(=O)O)C(=O)O)cc1 (stereo not drawn) ? > 100 µM

====

tested on: HCT-116 colon; experiment: NCI tumour cell line growth inhibition, 48 h
Exercise: for every item that follows, state its recorded TGI.

What measured TGI goes with CCOC(=O)C(SCCO)C(C(=O)OCC)n1ccc(N)nc1=O (stereo not drawn) ? > 100 µM

What measured TGI goes with `O=C(NCCCN1CCN(CCCNC(=O)c2cnc3ccccc3n2)CC1)c1cnc2ccccc2n1` ? > 100 µM

What measured TGI goes with CC(=O)OC1(C#N)CC2OC1C1C2N1C(=O)c1ccccc1 (stereo not drawn) ? > 100 µM

What measured TGI goes with `Oc1c(C(O)(c2ccccc2)c2ccc3ccccc3c2O)ccc2ccccc12` ? 21.8 µM

What measured TGI goes with `Cc1cc(C)nc(NS(=O)(=O)c2ccc(Nc3c4ccccc4nc4c(C(=O)NCCN(C)C)ccc(Cl)c34)cc2)n1` ? 7.23 µM

What measured TGI goes with `c1ccc(Cc2cccc3cc(-c4ccc(-c5ccccc5)cc4)[nH]c23)cc1` ? > 100 µM

What measured TGI goes with Clc1cc2nc(C3CCCO3)[nH]c2cc1Cl (stereo not drawn) ? > 100 µM

What measured TGI goes with `CCN1CCC[C@H]1c1cc(O)c2c(c1OC)C[C@H]1C[C@H]3[C@H](N)C(=O)C(C(N)=O)=C(O)[C@@]3(O)C(=O)C1=C2O` ? 1.96 µM

What measured TGI goes with `CCCc1cc(=O)oc2c(C(=O)CC(C)C)c(O)c(CC=C(C)C)c(O)c12` ? > 50 µM

What measured TGI goes with `COc1cc(Cn2c3c(c4c(CN(C)C)c(O)ccc42)C(=O)c2ccccc2C3=O)cc(OC)c1` ? 31.1 µM

What measured TGI goes with `O=c1oc2ncccc2n1Cc1ccc([N+](=O)[O-])cc1` ? > 100 µM

What measured TGI goes with `Nn1c(CNc2ccc(-c3nnc(Nc4ccc(Cl)cc4)n3N)cc2)nnc1Nc1ccc(Cl)cc1` ? > 100 µM

What measured TGI goes with `Fc1ccc(-c2nc(-c3nc4ccc(Cl)cc4[nH]3)cc3c2[nH]c2ccccc23)cc1` ? 12.5 µM

====

system: A549 NSCLC; assay: NCI tumour cell line growth inhibition, 48 h
measurement-label: TGI

What measured TGI goes with `O=S(=O)(NCCNc1nccc(-c2c(-c3cccc(O)c3)nc3sccn23)n1)c1ccc(F)cc1` ? 36.1 µM

What measured TGI goes with Cc1cccc2c1Oc1cc(Cl)ccc1C2NC(=O)CCN1CCCCC1 (stereo unspecified) ? 37.5 µM

What measured TGI goes with `C/C(CC(O)(C(F)(F)F)C(F)(F)F)=N\N` ? > 10 µM

What measured TGI goes with `O=C1C2=C(C(=O)c3c(O)ccc(O)c31)N(c1ccc(N3CCOCC3)nc1)Cc1ccccc1O2` ? 9.11 µM

What measured TGI goes with `CCN1CCC[C@H]1c1cc(O)c2c(c1OC)C[C@H]1C[C@H]3[C@H](N)C(=O)C(C(N)=O)=C(O)[C@@]3(O)C(=O)C1=C2O` ? 8.72 µM

What measured TGI goes with `CCCS(=O)(=O)O` ? > 100 µM

What measured TGI goes with `O=C(CSc1nc2ccc(I)cc2c(=O)n1Cc1ccccc1)N/N=C/c1ccccc1` ? > 100 µM

What measured TGI goes with OC1CN(OC/C=C/c2ccccc2)CC(O)C1O (stereo unspecified) ? > 100 µM

What measured TGI goes with `CC(C)(C)OC(=O)N1C(C2=COc3ccccc3O2)=COc2ccccc21` ? > 100 µM

What measured TGI goes with C=CCN1CCC(OC(=O)C(O)(/C=C\CC)C2CCCC2)CC1 (stereo unspecified) ? > 100 µM

What measured TGI goes with `C/C(=N\NC(=O)CC(=O)Nc1ccc(C)cc1)c1cc2ccccc2oc1=O` ? > 100 µM

What measured TGI goes with CCC(=O)C1=C(OC(C)=O)C2Cc3c(n(C)c4ccccc34)C(C1)N2C (stereo unspecified) ? > 100 µM

What measured TGI goes with `O=C(CC(=O)c1ccncc1)c1ccccc1` ? > 100 µM

What measured TGI goes with O=C(O)CC(NC(=O)C(F)(F)F)C(=O)NC1Cc2ccccc2OC1=O (stereo unspecified) ? > 100 µM

What measured TGI goes with `Cc1nn2c(N)cc(=O)nc2nc1/C=C/c1ccc(N(C)C)cc1` ? > 100 µM

What measured TGI goes with `CCOC(=O)CC(=O)ON(C)C(=O)Cc1ccccc1` ? > 100 µM
